# Tested on: DLD1
# method: cell viability (CellTiter-Glo) relative to plate median (fraction of plate median); higher = more viable cells
# particulars: 5 µM; treatment time 24 h; reporter: 7TFP
Field: label. Allowed values: YES (cell viability < 1) or NO (cell viability >= 1).

Here's what some known entries look like.
[[record]]
molecule = "COc1cc(O)c2c(=O)c(O)c(-c3ccc(O)c(O)c3)oc2c1"
class_label = "NO"

[[record]]
molecule = "CCC(=O)OCC(=O)[C@@]1(OC(=O)CC)[C@@H](C)C[C@H]2[C@@H]3CCC4=CC(=O)C=C[C@]4(C)[C@@]3(Cl)[C@@H](O)C[C@@]21C"
class_label = "YES"


We next turn to a different molecule, shown below.
Input `O=C(O)c1ccc2c(c1)OCO2` ; condition: cell viability strictly below 1. Does it hold?
YES
